Values compiled from patent US20230116972A1.

assayed_system: CYP3A4 (Homo sapiens)
Construct: from tissue; host or cells: human liver microsomes (pooled in the time-dependent assay)
method_description: time dependent inhibition of CYP450 in pooled human microsomes
Assay type: in vitro ADME
experimental_context: pre-incubation 30 min (NO NADPH); read-out: CYP3A4-M IC50
pIC50: −log10 of the molar value.
reported_property: pIC50

Item CO[C@H]1CC[C@H](NC(=O)c2nccc(-c3cncn3C)n2)CC1 [Compound 148] has what recorded pIC50? < 4.52

* * *

assayed_system: mouse CD38 (Mus musculus, UniProt P56528)
Sequence (P56528 1-304): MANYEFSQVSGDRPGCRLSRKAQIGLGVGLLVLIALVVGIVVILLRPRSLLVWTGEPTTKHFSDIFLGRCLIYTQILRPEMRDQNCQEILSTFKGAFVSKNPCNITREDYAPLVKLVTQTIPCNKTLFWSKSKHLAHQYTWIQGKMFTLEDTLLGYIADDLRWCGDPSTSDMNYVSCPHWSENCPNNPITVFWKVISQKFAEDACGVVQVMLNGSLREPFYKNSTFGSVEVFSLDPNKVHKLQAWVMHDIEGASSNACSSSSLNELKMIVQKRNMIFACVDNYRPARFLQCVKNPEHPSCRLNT
method_description: mouse recombinant CD38 enzyme assay (hydrolysis of NAD+)
experimental_context: read-out: mCD38 BioChem IC50
Kindly apply the following: Yes if IC50 is less than 5 nM, No in every other case.

Given the entry Cc1cc(C(=O)N[C@H]2CC[C@H](C(F)F)CC2)nc(-c2cncn2C)n1 [Compound 122] , would its reported IC50 be below 5 nM? Yes

Would you kindly verify if IC50 of Cc1ccc(-n2ccnc2)nc1C(=O)N[C@H]1CC[C@H](C(F)F)CC1 [Compound 101] is strictly less than 5 nM? No

Is IC50 of Cn1cncc1-c1nc(C(=O)Nc2ccc(C(F)(F)F)nc2)cc(C(C)(C)O)n1 [Compound 176] strictly below 5 nM? No

Lab note: IC50 threshold 5 nM. Does this compound come in strictly under it? CC(C)(O)c1cc(C(=O)Nc2ccc(C(F)F)nc2)nc(-n2ccnc2)n1 [Compound 158] No

Please determine if C[C@H]1CC[C@H](NC(=O)c2cncc(-n3ccnc3)n2)CC1 [Compound 102] is below 5 nM in terms of IC50. No

Problem: For the compound Cn1cncc1-c1nc(C(=O)N[C@H]2CCc3c(F)cccc32)cc(C2CCOCC2)n1 [Compound 228] , is IC50 under 5 nM? Yes

I'd appreciate it if you could check whether Cc1cnc(-c2cncn2C)nc1C(=O)Nc1ccc(C(F)(F)F)nc1 [Compound 326] has IC50 smaller than 5 nM. Yes

Determine if COc1ncc(-c2cncn2C)nc1C(=O)Nc1ccc(C(F)(F)F)nc1 [Compound 279] shows IC50 strictly lower than 5 nM. No

* * *

assayed_system: CYP3A4 (Homo sapiens, UniProt P08684)
Construct: from tissue; host or cells: human liver microsomes (pooled in the time-dependent assay)
Sequence (P08684 whole entry): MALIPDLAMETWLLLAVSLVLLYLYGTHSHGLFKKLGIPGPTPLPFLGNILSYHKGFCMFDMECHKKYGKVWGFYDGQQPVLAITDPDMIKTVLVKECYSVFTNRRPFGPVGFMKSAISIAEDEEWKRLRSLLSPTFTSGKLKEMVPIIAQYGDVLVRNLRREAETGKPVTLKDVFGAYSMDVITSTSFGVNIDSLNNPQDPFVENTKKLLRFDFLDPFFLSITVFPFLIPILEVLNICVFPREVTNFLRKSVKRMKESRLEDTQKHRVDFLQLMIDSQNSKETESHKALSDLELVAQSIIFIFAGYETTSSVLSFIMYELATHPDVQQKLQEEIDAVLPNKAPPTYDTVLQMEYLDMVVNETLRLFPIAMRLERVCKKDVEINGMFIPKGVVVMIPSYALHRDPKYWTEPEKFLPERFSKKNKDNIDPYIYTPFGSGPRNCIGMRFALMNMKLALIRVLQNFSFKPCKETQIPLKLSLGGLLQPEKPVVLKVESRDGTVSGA
method_description: direct inhibition of CYP450 in human liver microsomes (midazolam and testosterone probes)
Type: in vitro ADME
experimental_context: 3 uM, midazolam probe, read-out: CYP3A4-M T0 % activity
Give activity at 3 µM for every item shown.
Numbers only here, please. The scale is %.

Can you look up the measured activity at 3 µM of CO[C@H]1CC[C@H](NC(=O)c2cc(C3CCOCC3)nc(-c3cncn3C)n2)CC1 for me? 93

Give the measured activity at 3 µM of CC(C)(O)c1ccc(NC(=O)c2nccc(-n3ccnc3)n2)cn1 . 108

Report activity at 3 µM for CO[C@H]1CC[C@H](NC(=O)c2cc(C3CCC(F)(F)CC3)nc(-c3cncn3C)n2)CC1 please. 147

Recorded activity at 3 µM for [2H]c1nc([2H])n(-c2nc(C)cc(C(=O)N[C@H]3CC[C@H](OCCOC)CC3)n2)c1[2H] [Comparator Compound A, reference compound] , please? 98

Bench note: what activity at 3 µM did CO[C@H]1CC[C@H](NC(=O)c2cc(C3(C)COC3)nc(-c3cncn3C)n2)CC1 show? 92

Which activity at 3 µM reading was recorded for the molecule Cn1cncc1-c1ccnc(C(=O)Nc2ccc(C(C)(C)O)nc2)n1 ? 96

Reported activity at 3 µM, molecule Cn1cncc1-c1ccnc(C(=O)N[C@H]2CC[C@H](O)CC2)n1 : ____ 88

Item under review: CO[C@H]1CC[C@H](NC(=O)c2nccc(-n3ccnc3)n2)CC1 . Reported activity at 3 µM? 99
